Assay: Pharmacokinetic study in rats (intragastric administration and intravenous injection, LC/MS/MS)
Type: in vivo, SD rats
Details: both sexes, SD, plasma, po; rat, intragastric administration, 2 mg/kg; read-out: Area under curve AUC
Procedure: With rats as test animals, the plasma concentration of the compound of Example 2 and a comparative compound A (see compound (1) of Example 3 in WO2016135052A1) were determined by LC/MS/MS at different time points after intragastric administration and intravenous injection to the rats. The pharmacokinetic behavior in rats of the compound disclosed herein was studied and its pharmacokinetic profile was evaluated. […]
Recorded Endpoint: AUC (ng·h/mL)
API: value field is a number in ng·h/mL; no unit string.

// AUC value for O=C(O)[C@H]1O[C@@H](N(c2ccc(OC(F)(F)F)cc2)c2ccc3cccc(Cl)c3n2)[C@H](O)[C@@H](O)[C@@H]1O [A, reference compound] : 311

Please fill in: AUC reported for O=C(O)[C@H]1O[C@@H](N(c2ccc3c(c2)OC(F)(F)O3)c2ccc3cccc(Cl)c3n2)[C@H](O)[C@@H](O)[C@@H]1O [Compound 2] = 1220

* * *

Experiment: Pharmacokinetic study in rats (intragastric administration and intravenous injection, LC/MS/MS)
Type: in vivo, SD rats
Conditions: both sexes, SD, plasma; rat, intravenous injection, 1 mg/kg; read-out: Residence time MRT
Protocol: With rats as test animals, the plasma concentration of the compound of Example 2 and a comparative compound A (see compound (1) of Example 3 in WO2016135052A1) were determined by LC/MS/MS at different time points after intragastric administration and intravenous injection to the rats. The pharmacokinetic behavior in rats of the compound disclosed herein was studied and its pharmacokinetic profile was evaluated. […]
Recorded Endpoint: MRT (h)
Numbers only here, please. The scale is h.

O=C(O)[C@H]1O[C@@H](N(c2ccc3c(c2)OC(F)(F)O3)c2ccc3cccc(Cl)c3n2)[C@H](O)[C@@H](O)[C@@H]1O = 2.1

Here is the next item to consider.
Entry under test: O=C(O)[C@H]1O[C@@H](N(c2ccc(OC(F)(F)F)cc2)c2ccc3cccc(Cl)c3n2)[C@H](O)[C@@H](O)[C@@H]1O [A, reference compound] . Its MRT was 1.17

* * *

assay: Pharmacokinetic study in rats (intragastric administration and intravenous injection, LC/MS/MS); type: in vivo, SD rats; conditions: both sexes, SD, plasma; rat, intravenous injection, 1 mg/kg; read-out: Clearance CL
Recorded Endpoint: clearance (mL/min/kg)
Use mL/min/kg as the unit, but write only the number.

O=C(O)[C@H]1O[C@@H](N(c2ccc3c(c2)OC(F)(F)O3)c2ccc3cccc(Cl)c3n2)[C@H](O)[C@@H](O)[C@@H]1O = 0.781

--- query ---
Documented clearance of O=C(O)[C@H]1O[C@@H](N(c2ccc(OC(F)(F)F)cc2)c2ccc3cccc(Cl)c3n2)[C@H](O)[C@@H](O)[C@@H]1O [A, reference compound] : 1.45

* * *

assay: Pharmacokinetic study in rats (intragastric administration and intravenous injection, LC/MS/MS); assay type: in vivo, SD rats; settings: both sexes, SD, plasma, po; rat, intragastric administration, 2 mg/kg; read-out: Plasma concentration Cmax
Recorded Endpoint: Cmax
Quick note: number first, unit second.

# Cmax (compound: O=C(O)[C@H]1O[C@@H](N(c2ccc(OC(F)(F)F)cc2)c2ccc3cccc(Cl)c3n2)[C@H](O)[C@@H](O)[C@@H]1O [A, reference compound] ) is 105 ng/mL

Cmax reported for this compound O=C(O)[C@H]1O[C@@H](N(c2ccc3c(c2)OC(F)(F)O3)c2ccc3cccc(Cl)c3n2)[C@H](O)[C@@H](O)[C@@H]1O : 242 ng/mL
